- methodNotes: Multiple Ascending Dose (MAD) study, pharmacokinetics in healthy volunteers
- Format: in vivo, human
- testParameters: human, in vivo, oral, 8 mg, 8 mg QD, Day 1, n = 7; median
observationType: Tmax
Provide the measurement as a number trailed by its unit.

Could you tell me which Tmax is on file for [2H]C1([2H])C([C@@H](CC#N)n2cc(-c3ncnc4[nH]ccc34)cn2)C([2H])([2H])C([2H])([2H])C1([2H])[2H] ?
1 h

---

- methodNotes: Multiple Ascending Dose (MAD) study, pharmacokinetics in healthy volunteers
- Type: in vivo, human
- testParameters: human, in vivo, oral, 24 mg, 24 mg QD, Day 7, n = 8; arithmetic mean
observationType: half-life (min)
Entry rule: numbers only, all in min.

May I ask what half-life has been recorded for [2H]C1([2H])C([C@@H](CC#N)n2cc(-c3ncnc4[nH]ccc34)cn2)C([2H])([2H])C([2H])([2H])C1([2H])[2H] [Compound (I)] ?
210

---

- methodNotes: Single Ascending Dose (SAD) study, pharmacokinetics in healthy volunteers
- Format: in vivo, human
- testParameters: human, in vivo, oral; single dose 48 mg as phosphate salt, fasted, n = 5; arithmetic mean; read-out: C24hr
observationType: concentration at 24 h (ng/mL)
Respond numerically; units are ng/mL and should not be typed.

Quick one: concentration at 24 h for [2H]C1([2H])C([C@@H](CC#N)n2cc(-c3ncnc4[nH]ccc34)cn2)C([2H])([2H])C([2H])([2H])C1([2H])[2H] ?
9.26

---

- methodNotes: Multiple Ascending Dose (MAD) study, pharmacokinetics in healthy volunteers
- Type: in vivo, human
- testParameters: human, in vivo, oral, 32 mg, 32 mg QD, Day 1, n = 8; arithmetic mean
observationType: half-life (h)
Entry rule: numbers only, all in h.

I would be grateful if you could share the reported half-life for [2H]C1([2H])C([C@@H](CC#N)n2cc(-c3ncnc4[nH]ccc34)cn2)C([2H])([2H])C([2H])([2H])C1([2H])[2H] .
2.86

---

- methodNotes: Multiple Ascending Dose (MAD) study, pharmacokinetics in healthy volunteers
- Type: in vivo, human
- testParameters: human, in vivo, oral, 32 mg, 32 mg QD, Day 1, n = 8; median
observationType: Tmax
Remember to put the unit after the number in your answer.

Consider the molecule [2H]C1([2H])C([C@@H](CC#N)n2cc(-c3ncnc4[nH]ccc34)cn2)C([2H])([2H])C([2H])([2H])C1([2H])[2H] and give its measured Tmax.
45 min

---

- methodNotes: Multiple Ascending Dose (MAD) study, pharmacokinetics in healthy volunteers
- Assay type: in vivo, human
- testParameters: human, in vivo, oral, 8 mg, 8 mg BID, Day 1, n = 4; median
observationType: Tmax (h)
Please respond with the number in h and leave the unit unwritten.

Fill in the blank: the reported Tmax of [2H]C1([2H])C([C@@H](CC#N)n2cc(-c3ncnc4[nH]ccc34)cn2)C([2H])([2H])C([2H])([2H])C1([2H])[2H] [Compound (I)] is ____.
1

---

- methodNotes: Single Ascending Dose (SAD) study, pharmacokinetics in healthy volunteers
- Assay type: in vivo, human
- testParameters: human, in vivo, oral; single dose 48 mg as phosphate salt, fasted, n = 5; arithmetic mean
observationType: AUC(0-inf) (ng·h/mL)
Give just the number in ng·h/mL; leave the unit off.

I'd like to know its AUC(0-inf). The molecule in question is [2H]C1([2H])C([C@@H](CC#N)n2cc(-c3ncnc4[nH]ccc34)cn2)C([2H])([2H])C([2H])([2H])C1([2H])[2H] [Compound (I)]
4160

---

- methodNotes: Multiple Ascending Dose (MAD) study, pharmacokinetics in healthy volunteers
- Assay type: in vivo, human
- testParameters: human, in vivo, oral, 8 mg, 8 mg BID, Day 1, n = 4; arithmetic mean; read-out: AUCtau/AUC0-12hr
observationType: AUC(0-t) (ng·h/mL)
# number only, unit ng·h/mL dropped from output

Would you mind telling me what AUC(0-t) value was observed for [2H]C1([2H])C([C@@H](CC#N)n2cc(-c3ncnc4[nH]ccc34)cn2)C([2H])([2H])C([2H])([2H])C1([2H])[2H] [Compound (I)] ?
703

---

- methodNotes: Multiple Ascending Dose (MAD) study, pharmacokinetics in healthy volunteers
- Type: in vivo, human
- testParameters: human, in vivo, oral, 16 mg, 16 mg BID, Day 7, n = 8; arithmetic mean
observationType: Cmax
Field note: include the unit after the figure.

I am curious: what Cmax value has been reported for [2H]C1([2H])C([C@@H](CC#N)n2cc(-c3ncnc4[nH]ccc34)cn2)C([2H])([2H])C([2H])([2H])C1([2H])[2H] ?
0.288 µg/mL

---

- methodNotes: Multiple Ascending Dose (MAD) study, pharmacokinetics in healthy volunteers
- Type: in vivo, human
- testParameters: human, in vivo, oral, 24 mg, 24 mg QD, Day 1, n = 8; arithmetic mean
observationType: Cmax (ng/mL)
Provide the reading as a plain figure in ng/mL.

Given the entry [2H]C1([2H])C([C@@H](CC#N)n2cc(-c3ncnc4[nH]ccc34)cn2)C([2H])([2H])C([2H])([2H])C1([2H])[2H] [Compound (I)] , report its measured Cmax.
384

---

- methodNotes: Single Ascending Dose (SAD) study, pharmacokinetics in healthy volunteers
- Format: in vivo, human
- testParameters: human, in vivo, oral; single dose 8 mg as phosphate salt, fasted, n = 6; arithmetic mean; read-out: C24hr
observationType: concentration at 24 h (ng/mL)
API: value field is a number in ng/mL; no unit string.

Quick one: concentration at 24 h of [2H]C1([2H])C([C@@H](CC#N)n2cc(-c3ncnc4[nH]ccc34)cn2)C([2H])([2H])C([2H])([2H])C1([2H])[2H] ?
1.02

---

- methodNotes: Multiple Ascending Dose (MAD) study, pharmacokinetics in healthy volunteers
- Assay type: in vivo, human
- testParameters: human, in vivo, oral, 24 mg, 24 mg QD, Day 1, n = 8; arithmetic mean
observationType: half-life (h)
Write the value in h as a bare number.

What value of measured half-life is listed for [2H]C1([2H])C([C@@H](CC#N)n2cc(-c3ncnc4[nH]ccc34)cn2)C([2H])([2H])C([2H])([2H])C1([2H])[2H] ?
3.14

---

- methodNotes: Multiple Ascending Dose (MAD) study, pharmacokinetics in healthy volunteers
- Type: in vivo, human
- testParameters: human, in vivo, oral, 32 mg, 32 mg QD, Day 1, n = 8; arithmetic mean
observationType: Cmax (ng/mL)
Please respond with the number in ng/mL and leave the unit unwritten.

Endpoint output: Cmax of [2H]C1([2H])C([C@@H](CC#N)n2cc(-c3ncnc4[nH]ccc34)cn2)C([2H])([2H])C([2H])([2H])C1([2H])[2H] . Value?
509

---

- methodNotes: Multiple Ascending Dose (MAD) study, pharmacokinetics in healthy volunteers
- Assay type: in vivo, human
- testParameters: human, in vivo, oral, 8 mg, 8 mg QD, Day 7, n = 7; arithmetic mean
observationType: Cmax (ng/mL)
Write the number in ng/mL without appending the unit.

State the recorded Cmax for this entry: [2H]C1([2H])C([C@@H](CC#N)n2cc(-c3ncnc4[nH]ccc34)cn2)C([2H])([2H])C([2H])([2H])C1([2H])[2H] [Compound (I)]
151

---

- methodNotes: Single Ascending Dose (SAD) study, pharmacokinetics in healthy volunteers
- Type: in vivo, human
- testParameters: human, in vivo, oral; single dose 32 mg as phosphate salt, fasted, n = 6; arithmetic mean
observationType: Cmax (ng/mL)
Please state the figure in ng/mL; there is no need to write the unit.

Recorded Cmax of [2H]C1([2H])C([C@@H](CC#N)n2cc(-c3ncnc4[nH]ccc34)cn2)C([2H])([2H])C([2H])([2H])C1([2H])[2H] , please.
535

---

- methodNotes: Single Ascending Dose (SAD) study, pharmacokinetics in healthy volunteers
- Assay type: in vivo, human
- testParameters: human, in vivo, oral; single dose 8 mg as phosphate salt, fasted, n = 6; arithmetic mean
observationType: half-life (h)
Quick note: give the figure in h, leave out the unit.

Which measured half-life value corresponds to [2H]C1([2H])C([C@@H](CC#N)n2cc(-c3ncnc4[nH]ccc34)cn2)C([2H])([2H])C([2H])([2H])C1([2H])[2H] ?
3.14

---

- methodNotes: Multiple Ascending Dose (MAD) study, pharmacokinetics in healthy volunteers
- Format: in vivo, human
- testParameters: human, in vivo, oral, 8 mg, 8 mg QD, Day 1, n = 7; arithmetic mean
observationType: Cmax (ng/mL)
Respond with the bare value in ng/mL.

Given the entry [2H]C1([2H])C([C@@H](CC#N)n2cc(-c3ncnc4[nH]ccc34)cn2)C([2H])([2H])C([2H])([2H])C1([2H])[2H] , report its measured Cmax.
156
